compounds and their reported melting point

compound	result
Nc1sc(-c2ccoc2)c(CN(C2CCCCC2)C2CCCCC2)c1C(=O)c1ccc(Cl)cc1	132 to 135 °C
O=C1OC(=O)c2c1cccc2C(F)(F)F	65 to 67 °C
CCSc1cc(C)nc(SCC)c1NC(=O)CCCSc1nc2ccccc2s1	119 to 120 °C
CC(C)(C)c1cc(C(=O)c2c[nH]c(SC#N)c2)cc(C(C)(C)C)c1O	230 to 231 °C

--- query ---
What value of melting point has been reported for the following compound? CCOC(=O)CSC1(SCC(=O)OCC)CCC2C3CCC4=CC(=O)C=CC4(C)C3(F)C(O)CC21C (stereo not given)
125 to 127 °C

###

readout type: melting point

Some entries whose results are on file:
compound	melting point
CCCCc1nc2c(=O)n(Cc3ccc(-c4ccccc4C#N)cc3)ccc2n1Cc1ccc(-c2ccccc2C#N)cc1	83 °C
O=S(=O)(c1ccc(Cl)cc1)N1CCCC1c1cccs1 (racemic)	84 °C
COC(=O)c1ccc(OC2=C3N=C4CCCCC4=C3C(Cc3ccccc3F)C=C2)o1 (stereo unspecified)	121 to 122 °C
CS(=O)(=O)CCCOc1cccc2c1ccn2-c1ccnc(NC2CCC(C(=O)N3CCC(CN)CC3)CC2)n1 (stereo unspecified)	124 to 126 °C
CC(C)(C)OC(=O)NC1CCN(c2ccc(C#N)cc2)CC1	188 to 189 °C

What value of melting point has been reported for the following compound? NS(=O)(=O)c1cccc2c1CC(=O)CC2
173 to 175 °C

Then CN1CCOc2ccc(/C=C/C(=O)O)cc21 ?
190 °C

Then CC(=O)Oc1ccc(C(=O)Nc2cccc(OCc3cccnc3)c2)cc1C(C)(C)C ?
58 to 62 °C

###

molecules and their reported melting point

What value of melting point has been reported for the following molecule? Cc1cccc2nc(NC(=O)c3ccc(C4(C(=O)O)CCC4)cc3)cn12
272 °C

Then Fc1ccc2c(c1)nc(Cl)c1nnc(C(F)(F)F)n12 ?
135 to 138 °C

Then CC(C)(C#N)c1cc(CCCn2cncn2)cc(C(C)(C)C#N)c1 ?
102 to 104 °C

Then Cc1cc2nc(OC(C)C)nc(-c3cccc(C(F)(F)F)c3)c2s1 ?
106 °C

Then CC(C)(C)OC(=O)Nc1sc(-c2cncc(F)c2)nc1F ?
188 to 191 °C

Then O=C(NCC1(c2ccccc2)CCCCC1)Nc1ccc(I)cc1 ?
184 to 190 °C

###

compounds and their reported melting point

What value of melting point has been reported for the following compound? Cn1nnc2ccc(C(c3cccs3)n3ccnc3)cc21 (stereo not given)
157 °C

Then CN(C)c1ccc(-c2nc(N(C)C)nnc2-c2ccc(F)cc2)cc1 ?
157 to 160 °C

Then O=c1[nH]nc2ccc(-c3ccc(Cl)c(Cl)c3)nn12 ?
336 to 338 °C

Then Cc1ccc(-c2[nH]c(-c3ccccc3[N+](=O)[O-])nc2C(=O)Nc2nccs2)cc1 ?
203 to 204 °C

Then FC(F)(F)COc1nc(NCc2ccc(C(F)(F)F)cc2)nc(Nc2ccc3cc[nH]c3c2)n1 ?
119 to 121 °C

Then NC(=O)N1CCC(Oc2c(F)c(F)c(F)c(F)c2F)CC1 ?
170 to 172 °C

Then O=C(NO)c1ccc2c(c1)CN(C(=O)c1ccc3ncccc3c1)C2 ?
208 to 210 °C

Then O=C(OCC1CCCO1)C1Oc2ccccc2Cc2ccccc2O1 (stereo not given) ?
83 to 85 °C

###

compounds and their reported melting point

Some entries whose results are on file:
compound	melting point
O=C1CCC(c2cc(F)c(F)c(F)c2)CC1	124 °C
c1ccc2c(c1)C[C@H]1CSC(=Nc3nccs3)N1C2	158 °C
NC(=O)c1cc2c(Oc3ccc(N)cc3)cncc2s1	> 250 °C
O=C1COC2(CCN(CC(=O)c3ccc(F)cc3)CC2)CN1	206 to 210 °C
c1ccc([C@H]2OC2(c2ccccc2)c2ccccc2)cc1	91 to 92 °C
CCC(=O)N1CCC(NC(=O)Nc2cccc(F)c2)CC1	158 to 164 °C
CCn1cc(C(=O)NCCc2ccncc2)c(=O)c2cc(F)cc(C)c21	243 to 245 °C
Nc1ccc(S(=O)(=O)c2cc(N)cc(Br)n2)cc1	202 to 204 °C

What value of melting point has been reported for the following compound? O=C(Nc1ccc(F)cc1F)c1ccccn1
90.5 to 95 °C

Then COC(=O)CCN1CCCC2(Cc3ccc(Br)cc3)C(=O)N(c3cc(Cl)nc(Cl)c3)C(=O)N12 (configuration not stated) ?
157 °C

Then FC(F)(F)c1nc(-c2ccc(Cl)cc2)c(-c2ccc(Cl)cc2)s1 ?
101 to 102 °C

Then COc1ccc(CCCl)cc1O ?
53 to 54 °C

Then CNC(=O)Nc1cc(CC(C)C)ccc1-c1ccccc1S(=O)(=O)Nc1onc(C)c1C ?
172 to 174 °C

###

molecules and their reported melting point

What value of melting point has been reported for the following molecule? CC[C@H](C)[C@H](OCc1cccc(F)c1F)[C@H]1[C@H]([N+](=O)[O-])[C@H](c2ccccc2)N[C@@H]1C(=O)NCC(=O)O
137 to 138 °C

Then COc1ccc(S(=O)(=O)N2c3ccc(Br)cc3-c3ccccc3C2c2ccccc2)cc1Br (centres undefined) ?
205 to 207 °C

Then Cc1c(NC(=O)c2ccc(-c3ccc(F)cc3)cc2)ccc2cc(C(C)N3CCCCC3)cnc12 (centres undefined) ?
168 to 170 °C

###

readout type: melting point

Some entries whose results are on file:
molecule	result
CCCCCCCCC(Br)C(=O)Nc1c(OC)cc(OC)cc1OC (stereo unspecified)	109 to 110 °C
Nc1cc(N=c2sc(=S)n3n2CCCC3)c(F)cc1Cl	59 to 61 °C
CC(C)c1cnc(NC(=O)Cc2csc(NC(=O)CN(C)C)n2)s1	70 to 71 °C
Cc1ccc2sc3nncn3c2c1C	226 to 228 °C

--- query ---
What value of melting point has been reported for the following molecule? CC(=O)OC(=CC(=O)O)CC(=O)Nc1ccccc1
125 to 126 °C

###

readout type: melting point

Some entries whose results are on file:
compound	result
O=C(O)c1ccoc1Cl	138 to 141 °C
COc1cc(C=O)ccc1C1OC(CO)C(O)C(O)C1O (configuration not stated)	188 to 190 °C
O=C(O)c1ccc(CN2C(=O)c3ccc(C(=O)O)cc3C2=O)cc1	365 to 366 °C
CC1Cc2cc(Cl)ccc2C(c2ccc([N+](=O)[O-])cc2)O1 (configuration not stated)	118 to 120 °C
CCOc1cc2cc(COC(C)=O)c(COC(C)=O)c(-c3ccnc(-n4ccc5ccccc5c4=O)c3)c2cc1OCC	90 to 93 °C
CC[C@H](C1CC1)n1cc(Cl)nc(N2CCc3cc(OC)cc(Cl)c32)c1=O	118 to 120 °C
Cc1cc2n(c(=O)n1)C(C)N=C2 (configuration not stated)	231 to 232 °C
CC(C)(C)c1ccc(C=CC(=O)c2ccc(N3CCN(c4ccncc4)CC3)cc2)cc1	213 to 214 °C

What value of melting point has been reported for the following compound? CN1CCN(c2ccnc3c(NC(=O)c4c(Cl)cccc4Cl)ccc(Cl)c23)C1=O
259 to 263 °C

Then CC(C)c1cccc(C(C)C)c1NC(=O)Nc1nnn[nH]1 ?
> 240 °C

Then CCCOc1cc(C)ccc1-c1nc(N)c(N=O)c(=O)[nH]1 ?
214 to 216 °C

###

readout type: melting point

Some entries whose results are on file:
molecule	result
CC1(C)Oc2ccc(I)cc2[C@@H](N2Cc3ccccc3C2=O)[C@@H]1O (relative stereo)	224 to 228 °C
CCS(=O)(=O)CCC(=O)NNC(=O)N1Cc2ccccc2Oc2ccc(F)cc21	191 to 193 °C
Fc1ccc(Nc2ncnc3cnc(NCc4ccccn4)nc23)cc1Cl	220 to 222 °C

What value of melting point has been reported for the following molecule? COc1ccc(C2=CC(=O)CCC2)cc1
83 to 85 °C

Then Cc1cc2c(cc1S(N)(=O)=O)S(=O)(=O)NC(C1CCCCC1)N2 (centres undefined) ?
231 to 233 °C

Then CN1C(=O)N(CC(CS(=O)(=O)c2ccc(Oc3ccc(Cl)cc3)cc2)N(O)C=O)C(=O)C1(C)C (single isomer, unassigned; (-)) ?
111 °C

Then O=C(O)CC1(C(=O)O)CCSc2ccccc21 (centres undefined) ?
168 to 170 °C

Then CCOC(=O)C1=C(C)NC(C)=C(c2nnco2)C1c1cccc(Cl)c1Cl (centres undefined) ?
187 to 189 °C

###

readout type: melting point

Some entries whose results are on file:
compound	readout type	result
CC(C)/[N+]([O-])=C/c1ccc(O)cc1O	melting point	155 to 157 °C
CC(=O)Nc1nc(CCc2ccc(NC(=N)NN)cc2)cs1	melting point	216 to 218 °C
Cn1cc(-c2ccccc2)c(=O)c(-c2cc(C(F)(F)F)ccc2Cl)c1	melting point	150 to 152 °C
CC(=O)c1c(C)[nH]c(-c2ccc(F)cc2)c1N	melting point	211 to 212 °C
OCC1OC(n2cnc3c(NC4C=CCC4O)ncnc32)C(O)C1O (stereo unspecified)	melting point	212 to 214 °C

What value of melting point has been reported for the following compound? CCC(=O)c1ccc(OC(C)c2ccc(Cl)cc2)cc1 (stereo unspecified)
70 to 71 °C

Then CCOC(=O)c1cn(-c2ccc(F)cc2)nc1C ?
103 to 104 °C

Then COc1ccc(N2C(=O)C(=C3CCCN3C)c3ccccc32)cc1Cl ?
126 to 128 °C

Then C=C1C=Cc2cc(C(=O)O)ccc2OC1 ?
188 °C

Then O=C(O)c1sc(-c2cccc(Cl)c2)nc1O ?
107 to 108 °C

Then CC(C)(C)OC(=O)N1[C@@H](C(=O)O)C[C@H](S(=O)(=O)c2ccccc2)[C@H]1c1ccccc1F (racemic) ?
186 °C
